Assign T/K at 24 h (tumor uptake/kidney uptake) to each entry below.
tested on: PC-3 PIP tumor-bearing mice; experiment: Biodistribution study in SCID mice bearing PC3-PIP tumor; type: in vivo, mouse; conditions: PC3 PIP tumor-bearing mice, 24 h
Lab note: jot down the number only; don't add units.

Bench note, PC-3 PIP tumor-bearing mice: O=C(O)CC[C@H](NC(=O)N[C@@H](CCCCNC(=O)[C@H](Cc1ccc2ccccc2c1)NC(=O)[C@H]1CC[C@H](CNC(=O)COCCOCCNC(=O)[C@H](CCCCNC(=O)CCCOC(=O)CNC(=O)CN2CCN(CC(=O)O)CCN(CC(=O)O)CCN(CC(=O)O)CC2)NC(=O)[C@H](CCCCNC(=O)COCCOCCNC(=O)COCCOCCNC(=O)[C@H](CCC(=O)O)NC(=O)CCCc2ccc(I)cc2)NC(=O)COCCOCCNC(=O)COCCOCCNC(=O)[C@H](CCC(=O)O)NC(=O)CCCc2ccc(I)cc2)CC1)C(=O)O)C(=O)O , T/K at 24 h (tumor uptake/kidney uptake) reads 0.9

Bench note, PC-3 PIP tumor-bearing mice: O=C(O)CC[C@H](NC(=O)N[C@@H](CCCCNC(=O)[C@H](Cc1ccc2ccccc2c1)NC(=O)C1CCC(CNC(=O)CN2CCN(CC(=O)O)CCN(CC(=O)O)CCN(CC(=O)O)CC2)CC1)C(=O)O)C(=O)O (stereo partly drawn) [Example C-1, reference compound] , T/K at 24 h (tumor uptake/kidney uptake) reads 57

Bench note, PC-3 PIP tumor-bearing mice: O=C(O)CC[C@H](NC(=O)N[C@@H](CCCCNC(=O)[C@H](Cc1ccc2ccccc2c1)NC(=O)[C@H]1CC[C@H](CNC(=O)[C@H](CCCCNC(=O)CCCOC(=O)CNC(=O)CN2CCN(CC(=O)O)CCN(CC(=O)O)CCN(CC(=O)O)CC2)NC(=O)[C@H](CCC(=O)O)NC(=O)CCCc2ccc(I)cc2)CC1)C(=O)O)C(=O)O [Example I-3, 4pIBA-Glu-Lys(-ESL1-DOTA)-Trx-2NaI-eKuE] , T/K at 24 h (tumor uptake/kidney uptake) reads 0.8

Bench note, PC-3 PIP tumor-bearing mice: O=C(O)CC[C@H](NC(=O)N[C@@H](CCCCNC(=O)[C@H](Cc1ccc2ccccc2c1)NC(=O)[C@H]1CC[C@H](CNC(=O)[C@H](CCCCNC(=O)CCC(=O)NCCSSCCNC(=O)CN2CCN(CC(=O)O)CCN(CC(=O)O)CCN(CC(=O)O)CC2)NC(=O)[C@H](CCC(=O)O)NC(=O)CCCc2ccc(I)cc2)CC1)C(=O)O)C(=O)O [Example I-4, 4pIBA-Glu-Lys(-SSL1-DOTA)-Trx-2NaI-eKuE] , T/K at 24 h (tumor uptake/kidney uptake) reads 0.2

Bench note, PC-3 PIP tumor-bearing mice: O=C(O)CC[C@H](NC(=O)N[C@@H](CCCCNC(=O)[C@H](Cc1ccc2ccccc2c1)NC(=O)[C@H]1CC[C@H](CNC(=O)[C@H](CCCCNC(=O)CN2CCN(CC(=O)O)CCN(CC(=O)O)CCN(CC(=O)O)CC2)NC(=O)CCCOC(=O)CNC(=O)[C@H](CCC(=O)O)NC(=O)CCCc2ccc(I)cc2)CC1)C(=O)O)C(=O)O , T/K at 24 h (tumor uptake/kidney uptake) reads 5.0

Bench note, PC-3 PIP tumor-bearing mice: O=C(O)CC[C@H](NC(=O)N[C@@H](CCCCNC(=O)[C@H](Cc1ccc2ccccc2c1)NC(=O)[C@H]1CC[C@H](CNC(=O)[C@H](CCCCNC(=O)CN2CCN(CC(=O)O)CCN(CC(=O)O)CCN(CC(=O)O)CC2)NC(=O)[C@H](CCC(=O)O)NC(=O)CCCc2ccc(I)cc2)CC1)C(=O)O)C(=O)O [Example C-2, 4pIBA-Glu-Lys(DOTA)-Trx-2NaI-eKuE, reference compound] , T/K at 24 h (tumor uptake/kidney uptake) reads 1.0

====

assay: Ex-vivo mouse plasma stability study of ^177Lu-labeled compounds; assay type: in vitro ADME; conditions: 37° C., 72 h
experimental endpoint: % Remaining 72 h (%)
Write the value in % as a bare number.

# % Remaining 72 h of O=C(O)CC[C@H](NC(=O)N[C@@H](CCCCNC(=O)[C@H](Cc1ccc2ccccc2c1)NC(=O)[C@H]1CC[C@H](CNC(=O)[C@H](CCCCNC(=O)CN2CCN(CC(=O)O)CCN(CC(=O)O)CCN(CC(=O)O)CC2)NC(=O)[C@H](CCC(=O)O)NC(=O)CCCc2ccc(I)cc2)CC1)C(=O)O)C(=O)O [Example C-2, 4pIBA-Glu-Lys(DOTA)-Trx-2NaI-eKuE, reference compound] = 100

====

assay: Ex-vivo mouse plasma stability study of ^177Lu-labeled compounds; assay type: in vitro ADME; conditions: 37° C., 4 h
experimental endpoint: % Remaining 4 h (%)
Write the value in % as a bare number.

# % Remaining 4 h of O=C(O)CCCCCCCCCCCCCCCCC(=O)N[C@@H](CCC(=O)NCCOCCOCC(=O)NCCOCCOCC(=O)N[C@@H](CCCCNC(=O)CCCOC(=O)CNC(=O)CNC(=O)CNC(=O)CNC(=O)CN1CCN(CC(=O)O)CCN(CC(=O)O)CCN(CC(=O)O)CC1)C(=O)NCCOCCOCC(=O)NC[C@H]1CC[C@H](C(=O)N[C@@H](Cc2ccc3ccccc3c2)C(=O)NCCCC[C@H](NC(=O)N[C@@H](CCC(=O)O)C(=O)O)C(=O)O)CC1)C(=O)O [Example I-46] = 93.5

# % Remaining 4 h of O=C(O)CC[C@H](NC(=O)N[C@@H](CCCCNC(=O)[C@H](Cc1ccc2ccccc2c1)NC(=O)[C@H]1CC[C@H](CNC(=O)[C@H](CCCCNC(=O)CN2CCN(CC(=O)O)CCN(CC(=O)O)CCN(CC(=O)O)CC2)NC(=O)CCCOC(=O)CNC(=O)[C@H](CCC(=O)O)NC(=O)CCCc2ccc(I)cc2)CC1)C(=O)O)C(=O)O [Example I-2, 4pIBA-Glu-ESL1-Lys(DOTA)-Trx-2NaI-eKuE] = 93.2

====

Assign T at 96 h (tumor uptake) to each entry below.
test system: PC-3 PIP tumor-bearing mice; assay: Biodistribution study in SCID mice bearing PC3-PIP tumor; assay type: in vivo, mouse; settings: PC3 PIP tumor-bearing mice, 96 h
Lab note: jot down the number only; don't add units.

Bench note, PC-3 PIP tumor-bearing mice: O=C(O)CC[C@H](NC(=O)N[C@@H](CCCCNC(=O)[C@H](Cc1ccc2ccccc2c1)NC(=O)[C@H]1CC[C@H](CNC(=O)[C@H](CCCCNC(=O)CN2CCN(CC(=O)O)CCN(CC(=O)O)CCN(CC(=O)O)CC2)NC(=O)CCCOC(=O)CNC(=O)[C@H](CCC(=O)O)NC(=O)CCCc2ccc(I)cc2)CC1)C(=O)O)C(=O)O , T at 96 h (tumor uptake) reads 9.8

Bench note, PC-3 PIP tumor-bearing mice: O=C(O)CC[C@H](NC(=O)N[C@@H](CCCCNC(=O)[C@H](Cc1ccc2ccccc2c1)NC(=O)C1CCC(CNC(=O)CN2CCN(CC(=O)O)CCN(CC(=O)O)CCN(CC(=O)O)CC2)CC1)C(=O)O)C(=O)O (stereo partly shown) [Example C-1, reference compound] , T at 96 h (tumor uptake) reads 7.3

Bench note, PC-3 PIP tumor-bearing mice: O=C(O)CC[C@H](NC(=O)N[C@@H](CCCCNC(=O)[C@H](Cc1ccc2ccccc2c1)NC(=O)[C@H]1CC[C@H](CNC(=O)[C@H](CCCCNC(=O)CCC(=O)NCCSSCCNC(=O)CN2CCN(CC(=O)O)CCN(CC(=O)O)CCN(CC(=O)O)CC2)NC(=O)[C@H](CCC(=O)O)NC(=O)CCCc2ccc(I)cc2)CC1)C(=O)O)C(=O)O [Example I-4, 4pIBA-Glu-Lys(-SSL1-DOTA)-Trx-2NaI-eKuE] , T at 96 h (tumor uptake) reads 0.3

Bench note, PC-3 PIP tumor-bearing mice: O=C(O)CC[C@H](NC(=O)N[C@@H](CCCCNC(=O)[C@H](Cc1ccc2ccccc2c1)NC(=O)[C@H]1CC[C@H](CNC(=O)COCCOCCNC(=O)[C@H](CCCCNC(=O)CCCOC(=O)CNC(=O)CN2CCN(CC(=O)O)CCN(CC(=O)O)CCN(CC(=O)O)CC2)NC(=O)[C@H](CCCCNC(=O)COCCOCCNC(=O)COCCOCCNC(=O)[C@H](CCC(=O)O)NC(=O)CCCc2ccc(I)cc2)NC(=O)COCCOCCNC(=O)COCCOCCNC(=O)[C@H](CCC(=O)O)NC(=O)CCCc2ccc(I)cc2)CC1)C(=O)O)C(=O)O , T at 96 h (tumor uptake) reads 2.6

====

target: PSMA (Homo sapiens); construct: host or cells: LNCaP cells; assay: Cell-based radioligand competitive binding assay (^125I-C-8, LNCaP cells); conditions: relative, C-1 = 1.00
Sequence (Q04609 whole entry): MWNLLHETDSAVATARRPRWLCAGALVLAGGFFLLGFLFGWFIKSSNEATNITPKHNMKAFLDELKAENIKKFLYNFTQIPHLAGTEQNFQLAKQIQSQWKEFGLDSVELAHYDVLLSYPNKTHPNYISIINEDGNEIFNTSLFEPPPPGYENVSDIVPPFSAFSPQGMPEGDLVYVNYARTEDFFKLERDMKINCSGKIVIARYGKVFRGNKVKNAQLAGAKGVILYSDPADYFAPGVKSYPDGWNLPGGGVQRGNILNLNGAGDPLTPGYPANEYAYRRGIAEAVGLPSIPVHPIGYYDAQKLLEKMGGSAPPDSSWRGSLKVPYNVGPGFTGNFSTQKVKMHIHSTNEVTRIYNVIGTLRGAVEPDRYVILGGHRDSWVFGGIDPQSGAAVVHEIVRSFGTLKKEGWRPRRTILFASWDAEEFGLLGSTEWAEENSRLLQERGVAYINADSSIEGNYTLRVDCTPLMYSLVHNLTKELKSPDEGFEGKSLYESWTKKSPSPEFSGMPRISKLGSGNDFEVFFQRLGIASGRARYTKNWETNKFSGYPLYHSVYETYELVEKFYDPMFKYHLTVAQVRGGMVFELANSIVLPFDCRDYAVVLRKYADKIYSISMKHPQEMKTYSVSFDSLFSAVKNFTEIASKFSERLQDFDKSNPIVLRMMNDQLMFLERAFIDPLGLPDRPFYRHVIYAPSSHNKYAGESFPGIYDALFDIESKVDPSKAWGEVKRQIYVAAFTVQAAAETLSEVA
Assign Relative Binding Affinity to each entry below.
Lab note: jot down the number only; don't add units.

# Relative Binding Affinity of O=C(O)CC[C@H](NC(=O)N[C@@H](CCCCNC(=O)[C@H](Cc1ccc2ccccc2c1)NC(=O)[C@H]1CC[C@H](CNC(=O)[C@H](CCCCNC(=O)CCCOC(=O)CNC(=O)CN2CCN(CC(=O)O)CCN(CC(=O)O)CCN(CC(=O)O)CC2)NC(=O)[C@H](CCC(=O)O)NC(=O)CCCc2ccc(I)cc2)CC1)C(=O)O)C(=O)O [Example I-3, 4pIBA-Glu-Lys(-ESL1-DOTA)-Trx-2NaI-eKuE] = 1.30

# Relative Binding Affinity of Cc1ccc(CCCC(=O)NCCCC[C@H](NC(=O)CN2CCN(CC(=O)O)CCN(CC(=O)O)CCN(CC(=O)O)CC2)C(=O)NCC2CCC(C(=O)N[C@@H](Cc3ccc4ccccc4c3)C(=O)NCCCC[C@H](NC(=O)N[C@@H](CCC(=O)O)C(=O)O)C(=O)O)CC2)cc1 (stereo partly drawn) = 0.92

# Relative Binding Affinity of O=C(O)CC[C@H](NC(=O)N[C@@H](CCCCNC(=O)[C@H](Cc1ccc2ccccc2c1)NC(=O)[C@H]1CC[C@H](CNC(=O)[C@H](CCCCNC(=O)CN2CCN(CC(=O)O)CCN(CC(=O)O)CCN(CC(=O)O)CC2)NC(=O)[C@H](CCC(=O)O)NC(=O)CCCc2ccc(I)cc2)CC1)C(=O)O)C(=O)O [Example C-2, 4pIBA-Glu-Lys(DOTA)-Trx-2NaI-eKuE, reference compound] = 1.78
